Test system: Nanoluciferase (engineered Oplophorus gracilirostris luciferase)
EXPERIMENTAL_PROTOCOL: Primary Nanoluciferase (NLuc) qHTS assay for identification of artifact compounds. (AID 1845222);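 further: NLuc secreted into diluted conditioned medium of S16 cells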
CONDITION_DESCRIPTION: NLuc-conditioned medium, Nano-Glo luminescence, 5 min; series mostly up to 54.1 µM
Calls of active or inactive are those of the source. The call rests on the fitted dose curve; in most records, active means well fitted inhibition curve with a large enough effect; inconclusive means small, poorly fitted or top-dose-only effect; inactive means flat fitted curve, though single readings scatter.
RESULT_TYPE: activity, negative = inhibition

# COMPOUND, activity, negative = inhibition
data = [
    ("Cc1ccc2c(c1)C(=O)[C@]1(O)CCN(c3ccccc3)C1=N2", "inactive"),
    ("COc1nc(C)cnc1NS(=O)(=O)c1cccnc1-c1ccc(-c2nnco2)cc1", "inactive"),
    ("O=C(CO)N1CCC(c2[nH]nc(-c3ccc(Cl)cc3)c2-c2ccncn2)CC1", "inactive"),
    ("CN1c2ccccc2C(=O)N2CCc3c([nH]c4ccccc34)C21 (centres undefined)", "inactive"),
    ("CC(C)(O)CC(=O)NCCn1ccc2ncnc(Nc3ccc(Oc4cccc(C(F)(F)F)c4)c(Cl)c3)c21", "inactive"),
    ("COc1ccc(-c2ccc3ncc4c(c3c2)n(-c2ccc(N3CCNCC3)c(C(F)(F)F)c2)c(=O)n4C)cn1", "inactive"),
]

Nanoluciferase (engineered Oplophorus gracilirostris luciferase) data for C=CC(=O)Nc1cccc(Sc2nc(Nc3ccc(N4CCN(C)CC4)cc3)ncc2Cl)c1 ; its activity, negative = inhibition: inactive

Hey, Nanoluciferase (engineered Oplophorus gracilirostris luciferase) data for CC(=O)Nc1cccc(-n2c(=O)n(C3CC3)c(=O)c3c(Nc4ccc(I)cc4F)n(C)c(=O)c(C)c32)c1 : activity, negative = inhibition came out at inactive

// assay Nanoluciferase (engineered Oplophorus gracilirostris luciferase), entry C[C@@H](NC(=O)c1ncnc(N)c1Cl)c1ncc(C(=O)Nc2cc(C(F)(F)F)c(Cl)cn2)s1 , activity, negative = inhibition value = inactive
